Experiment: Lethal dose in the mouse after acute administration
Settings: in vivo, oral, calculated, read-out: LD50 (DL50)
Measured LD50 at 72 h, listed per entry.
Provide only the numeric value, understood in mg/kg.

[[record]]
given_smiles = "OC1CCN(c2ccc(-c3ccccc3Cl)nn2)CC1"
quantity_kind = "LD50 at 72 h"
observed_result = 807


Note: attention shifts to another entry.
Would you mind telling me what LD50 at 72 h value was observed for OC1CCN(c2ccc(-c3ccc(Cl)cc3Cl)nn2)CC1 ?
423

---

Measured mortality at 72 h, listed per entry.
Assay: Lethal dose in the mouse after acute administration
Conditions: in vivo, po, 1000 mg/kg p.o., read-out: % of toxicity (animals which die)
Number first, unit second.

// below: answered molecules
[[record]]
molecule = "O=[N+]([O-])c1ccccc1-c1ccc(N2CCC(O)CC2)nn1 [SR 41673]"
quantity_kind = "mortality at 72 h"
observed_result = "20%"

[[record]]
molecule = "OCCN(CCO)c1nccc(-c2ccccc2Cl)n1 [SR 41591]"
quantity_kind = "mortality at 72 h"
observed_result = "0%"

[[record]]
molecule = "OC1CCN(c2ncc(Cl)c(-c3ccc(Cl)cc3)n2)CC1 [SR 41556]"
quantity_kind = "mortality at 72 h"
observed_result = "0%"

[[record]]
molecule = "COc1ccc(-c2ccc(N3CCC(O)CC3)nn2)cc1 [SR 41185]"
quantity_kind = "mortality at 72 h"
observed_result = "0%"

[[record]]
molecule = "O=C1CCN(c2ccc(-c3ccccc3Cl)nn2)CC1 [SR 42488]"
quantity_kind = "mortality at 72 h"
observed_result = "0%"


Note: attention shifts to another entry.
Would you mind telling me what mortality at 72 h value was observed for OC1CCN(c2ccc(-c3ccc(F)cc3)nn2)CC1 [SR 41184] ?
100%

---

Test: Lethal dose in the mouse after acute administration
Conditions: in vivo, po, 500 mg/kg p.o., read-out: % of toxicity (animals which die)
Protocol: The products were administered by the oral route to batches of 5 female Charles River CDl mice, weighing between 20 and 24 g. They were solubilized in 0.1N HCl. Toxicity was noted during the 72 hours following administration of the products. The LD50 was calculated for two products. The results expressed in percentage of animals which die in the […] consecutive to the oral administration of the products are noted in the preceding Table.
QUANTITY_KIND: mortality at 72 h (%)
Provide only the numeric value, understood in %.

Would you mind telling me what mortality at 72 h value was observed for O=C1CCN(c2ccc(-c3ccccc3Cl)nn2)CC1 [SR 42488] ?
0

Would you mind telling me what mortality at 72 h value was observed for OC1CCN(c2ncc(Cl)c(-c3ccccc3Cl)n2)CC1 [CM 40858] ?
0

Would you mind telling me what mortality at 72 h value was observed for CCCC(=O)OC1CCN(c2ccc(-c3ccccc3Cl)nn2)CC1 [SR 41172] ?
0

Would you mind telling me what mortality at 72 h value was observed for OC1CCN(c2ccc(-c3ccc(F)cc3)nn2)CC1 [SR 41184] ?
60

Would you mind telling me what mortality at 72 h value was observed for OC1CCN(c2ccc(-c3cccc(Cl)c3)nn2)CC1 [SR 41188] ?
0

---

Experiment: Lethal dose in the mouse after acute administration
Conditions: in vivo, po, 1000 mg/kg p.o., read-out: % of toxicity (animals which die)
QUANTITY_KIND: mortality at 72 h

// below: answered compounds
[[record]]
given_smiles = "OC1CCN(c2ccc(-c3ccc(Cl)c(Cl)c3)nn2)CC1"
observed_result = "100%"

[[record]]
given_smiles = "OC1CCN(c2nccc(-c3ccc(Cl)cc3)n2)CC1"
observed_result = "0%"

[[record]]
given_smiles = "OC1CCN(c2ccc(-c3cc(Cl)ccc3Cl)nn2)CC1"
observed_result = "100%"


Would you mind telling me what mortality at 72 h value was observed for Oc1ccccc1-c1ccc(N2CCC(O)CC2)nn1 ?
0%

---

Experiment: Lethal dose in the mouse after acute administration
Settings: in vivo, po, 1000 mg/kg p.o., read-out: % of toxicity (animals which die)
QUANTITY_KIND: mortality at 72 h

// below: answered molecules
[[record]]
molecule = "OC1CCN(c2ccc(-c3ccccc3Cl)nn2)C1 (centres unmarked)"
observed_result = "20%"

[[record]]
molecule = "OC1CCN(c2ccc(-c3ccccc3)nn2)CC1"
observed_result = "100%"

[[record]]
molecule = "OCCN(CCO)c1nccc(-c2ccc(Cl)cc2)n1"
observed_result = "40%"

[[record]]
molecule = "OC1CCN(c2ccc(-c3ccccc3F)nn2)CC1"
observed_result = "80%"


Note: attention shifts to another entry.
Would you mind telling me what mortality at 72 h value was observed for OC1CCN(c2ccc(-c3cccc(Cl)c3)nn2)CC1 ?
60%

---

Test: Lethal dose in the mouse after acute administration
Details: in vivo, po, 1000 mg/kg p.o., read-out: % of toxicity (animals which die)
QUANTITY_KIND: mortality at 72 h (%)
Provide only the numeric value, understood in %.

[[record]]
molecule = "OC1CCN(c2ncc(Cl)c(-c3ccccc3Cl)n2)CC1 [CM 40858]"
observed_result = 0

[[record]]
molecule = "Clc1ccccc1-c1ccc(N2CCC3(CC2)OCCO3)nn1 [SR 42487]"
observed_result = 0


Note: attention shifts to another entry.
Would you mind telling me what mortality at 72 h value was observed for CCCC(=O)OC1CCN(c2ccc(-c3ccccc3Cl)nn2)CC1 [SR 41172] ?
100
